Test system: HEK-293T
Assay: Multiplex assay against HEK293T
Format: toxicity, cell-based
Conditions: human, 12 h, 10 µM, compound concentration 10 uM, replicate 2
Overview of reported Population Healthy Nuclei (%) across a group of molecules:

{"Molecule": "CN(C)C/C=C/C(=O)Nc1ccc(C(=O)N2CCCC(Nc3ncc(Cl)c(-c4c[nH]c5ccccc45)n3)C2)cc1 (stereo not drawn)", "Population Healthy Nuclei (%)": 64}
{"Molecule": "O=c1nc2[nH]c3ccccc3nc-2c(=O)[nH]1 [ALLOXAZINE]", "Population Healthy Nuclei (%)": 70}
{"Molecule": "COCCCN1CCC(NC(=O)c2cc(Cl)c(N)c3c2OCC3)CC1 [PRUCALOPRIDE]", "Population Healthy Nuclei (%)": 72}
{"Molecule": "COc1cc2nc(N3CCN(C(=O)c4ccco4)CC3)nc(N)c2cc1OC.Cl [PRAZOSIN HYDROCHLORIDE]", "Population Healthy Nuclei (%)": 77}
{"Molecule": "C=CCN1C[C@H](C(=O)N(CCCN(C)C)C(=O)NCC)C[C@@H]2c3cccc4[nH]cc(c34)C[C@H]21 [CABERGOLINE]", "Population Healthy Nuclei (%)": 78}
{"Molecule": "Nc1nc(CC(=O)Nc2ccc(CCNC[C@H](O)c3ccccc3)cc2)cs1 [MIRABEGRON]", "Population Healthy Nuclei (%)": 74}
{"Molecule": "S=C(NCCCc1c[nH]cn1)NCCCN(Cc1ccc(Cl)c(Cl)c1)c1ccc(Br)cn1", "Population Healthy Nuclei (%)": 71}
{"Molecule": "Cc1cc(=O)n(C)c2cc(N3C(=O)CC[C@H](NS(=O)(=O)CC(C)C)[C@H]3c3ccc(Cl)cc3)ccc12", "Population Healthy Nuclei (%)": 66}
